Biological target: T1, Soluble ASGR-1 (human, UniProt P07306 62-291, biotinylated)
T1 construct: Soluble recombinant protein; also called recombinant, soluble ASGR-1 biotinylated protein
T1 sequence: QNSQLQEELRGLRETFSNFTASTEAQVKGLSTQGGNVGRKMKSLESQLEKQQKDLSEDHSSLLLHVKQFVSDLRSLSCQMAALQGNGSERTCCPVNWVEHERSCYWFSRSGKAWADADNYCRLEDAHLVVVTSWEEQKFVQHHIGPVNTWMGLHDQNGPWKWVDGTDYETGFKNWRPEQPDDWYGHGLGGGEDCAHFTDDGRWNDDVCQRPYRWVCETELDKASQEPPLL
Assay: limited antigen binding assay; biotinylated soluble ASGR-1 coated at 2.5 ng/mL on LumAvidin beads, FACS
# FACS Geomean per record follows

Worked examples follow.
[Q] Annotate the binder 48B12 (antibody, V domains shown, Tested as hybridoma supernatant at normalized concentration) VH: EVQLLESGGGLVQPGGSLRLSCAASGFTFSSYAMNWVRQAPGKGLEWVSAISGRGGNTFYADSVKGRFTISRDNSKNTLYLQMNSLRAEDTAVYYCAKRETYNWNYEGFDYWGQGTLVTVSS VL: SYELTQPPSVSVSPGQTARITCSGDALPKKYAYWYQQKSGQAPVLVIYEDSKRPSGIPERFSGSSSGTMATLTISGAQVEDEADYYCNSTDSSGNHVVFGGGTKLTVL with its measured FACS Geomean.
[A] 27000 FACS Geomean

[Q] Annotate the binder 191G10 (antibody, V domains shown, Tested as hybridoma supernatant at normalized concentration) VH: QVQLVESGGGVVQPGRSLRLSCAASGFTFSSYGMHWVRQAPGKGLEWVAVIWYDGSNKNYADSVKGRFTISRDNSKNTLYLQMNSLRAEDTAVYYCARDQGVGYDGLDVWGQGTTVTVSS VL: DIQMTQSPSSLSASVGDRVTITCRTSQGIGKYLAWFQQKPGKAPKSLLYKVSSLQSGVPSKFSGSGSGTDFTLTISSLQPEDFATYYCQQYMTYPLTFGGGTKVEIK with its measured FACS Geomean.
[A] 24200 FACS Geomean

[Q] Annotate the binder 194C10 (antibody, V domains shown, Tested as hybridoma supernatant at normalized concentration) VH: QVQLQQWGAGLLKPSETLSLTCAVSGGSFRYYYWSWIRQPPGKGLEWFGEINHSGSTNYNPSLKSRVTISIDTSKNQFSLKLRSVTAADTAVYYCARDYGAFDIWGQGTMVTVSS VL: EIVLTQSPGTLSLSPGERATLSCRASPSVNSGYLAWYQQKPGQTPRLLIFGASSRATGIPDRFSASGSGADFTLTISRLEPEDFAVYFCQQYESSPWTFGQGTKVEIK with its measured FACS Geomean.
[A] 21900 FACS Geomean

New cases:
[Q] Annotate the binder 7G4 (antibody, V domains shown, Tested as hybridoma supernatant at normalized concentration) VH: QVQLVESGGGVVQPGRSLRLSCAASGFTFNNYVMHWVRQAPGKGLEWVAVIWYDGSNKYYADSVKGRFTISRDNSKNTLYLQMTSLRAEDTAVYYCAREKYSSNWYDYGMDVWGQGTTVTVSS VL: DIQMTQSPSSLSASVGDRVTITCRASQGIRNDLGWYQQRPGKAPKRLIYAASSLQSGVPSRFSGSGSGTEFTLTISSLQPEDSATYYCLHQYSYPRTFGQGTKVEIK with its measured FACS Geomean.
[A] 6800 FACS Geomean

[Q] Annotate the binder 72G9 (antibody, V domains shown, Tested as hybridoma supernatant at normalized concentration) VH: EVQLVESGGGLVKPGGSLRLSCAASGFTFSSYSMNWVRQAPGKGLEWVSSISGSSSYIYYADSVKGRFTISRDNAKNSLYLQMNSLRAEDTAVYFCARGGSRGFDPWGQGTLVTVSS VL: DIQMTQSPSSLSASVGDRVTITCRASQSITSYLNWYQQKPGKAPKLLIYTASSLQSGVPSRFSGSGSGTDFTLTISSLQPEDFATYYCQQSHSFPFTFGPGTKVDIK with its measured FACS Geomean.
[A] 34000 FACS Geomean
